Entry source: paper PMC4335020

- ASSAY REMARKS: Single oral dose human plasma pharmacokinetics of D, DA and DOH after Cogni.Q
- Format: in vivo
- CONDITIONS USED: male, human, plasma, oral, Men, outliers excluded (S1 Table); read-out: Terminal t1/2, h, Mean (converted)
OBSERVABLE: half-life (h)

INSERT INTO measurements (compound, observable, readout_value) VALUES
  ('CC(C)=CC(=O)O[C@H]1Cc2cc3ccc(=O)oc3cc2OC1(C)C', 'half-life', 17.7),
  ('C/C=C(/C)C(=O)O[C@H]1Cc2cc3ccc(=O)oc3cc2OC1(C)C [DA, decursinol angelate]', 'half-life', 14.9),
  ('CC1(C)Oc2cc3oc(=O)ccc3cc2C[C@@H]1O', 'half-life', 6.6);

----------
- ASSAY REMARKS: Single oral dose human plasma pharmacokinetics of D, DA and DOH after Cogni.Q
- Assay type: in vivo
- CONDITIONS USED: both sexes, human, plasma, oral, range over human subjects; read-out: plasma C max, range in human subjects
OBSERVABLE: Cmax

INSERT INTO assay_data (chem_smiles, readout_value) VALUES
  ('CC1(C)Oc2cc3oc(=O)ccc3cc2C[C@@H]1O', '1300 to 4000 nM');

----------
- ASSAY REMARKS: Single oral dose human plasma pharmacokinetics of D, DA and DOH after Cogni.Q
- Assay type: in vivo
- CONDITIONS USED: male, human, plasma, po, Men N = 10; single oral dose Cogni.Q; plasma; read-out: Cmax, nmol/L, Mean (SD)
List of Cmax values.
OBSERVABLE: Cmax (nmol/L)

INSERT INTO assay_data (molecule, unit_name, readout_value) VALUES
  ('CC(C)=CC(=O)O[C@H]1Cc2cc3ccc(=O)oc3cc2OC1(C)C', 'nmol/L', 5.2),
  ('CC1(C)Oc2cc3oc(=O)ccc3cc2C[C@@H]1O', 'nmol/L', 2350),
  ('C/C=C(/C)C(=O)O[C@H]1Cc2cc3ccc(=O)oc3cc2OC1(C)C [DA, decursinol angelate]', 'nmol/L', 52.2);

----------
- ASSAY REMARKS: Single oral dose human plasma pharmacokinetics of D, DA and DOH after Cogni.Q
- Format: in vivo
- CONDITIONS USED: human, plasma, oral, 4 Cogni.Q vegicaps, subject S11 (178 lb); read-out: Tmax
OBSERVABLE: Tmax (h)

INSERT INTO assay_data (molecule, observable, unit_name, readout_value) VALUES
  ('CC1(C)Oc2cc3oc(=O)ccc3cc2C[C@@H]1O', 'Tmax', 'h', 2),
  ('C/C=C(/C)C(=O)O[C@H]1Cc2cc3ccc(=O)oc3cc2OC1(C)C [DA, decursinol angelate]', 'Tmax', 'h', 1),
  ('CC(C)=CC(=O)O[C@H]1Cc2cc3ccc(=O)oc3cc2OC1(C)C', 'Tmax', 'h', 1);

----------
Consider the following molecules and their measured Tmax readings.
- ASSAY REMARKS: Single oral dose human plasma pharmacokinetics of D, DA and DOH after Cogni.Q
- Type: in vivo
- CONDITIONS USED: human, plasma, oral, subject S20 (200 lb); read-out: Tmax
OBSERVABLE: Tmax (h)

INSERT INTO measurements (molecule, readout_value) VALUES
  ('C/C=C(/C)C(=O)O[C@H]1Cc2cc3ccc(=O)oc3cc2OC1(C)C [DA, decursinol angelate]', 2),
  ('CC1(C)Oc2cc3oc(=O)ccc3cc2C[C@@H]1O', 2),
  ('CC(C)=CC(=O)O[C@H]1Cc2cc3ccc(=O)oc3cc2OC1(C)C', 2);
